Biological target: hTRPM8 (Homo sapiens, UniProt Q7Z2W7)
Sequence (Q7Z2W7 whole entry): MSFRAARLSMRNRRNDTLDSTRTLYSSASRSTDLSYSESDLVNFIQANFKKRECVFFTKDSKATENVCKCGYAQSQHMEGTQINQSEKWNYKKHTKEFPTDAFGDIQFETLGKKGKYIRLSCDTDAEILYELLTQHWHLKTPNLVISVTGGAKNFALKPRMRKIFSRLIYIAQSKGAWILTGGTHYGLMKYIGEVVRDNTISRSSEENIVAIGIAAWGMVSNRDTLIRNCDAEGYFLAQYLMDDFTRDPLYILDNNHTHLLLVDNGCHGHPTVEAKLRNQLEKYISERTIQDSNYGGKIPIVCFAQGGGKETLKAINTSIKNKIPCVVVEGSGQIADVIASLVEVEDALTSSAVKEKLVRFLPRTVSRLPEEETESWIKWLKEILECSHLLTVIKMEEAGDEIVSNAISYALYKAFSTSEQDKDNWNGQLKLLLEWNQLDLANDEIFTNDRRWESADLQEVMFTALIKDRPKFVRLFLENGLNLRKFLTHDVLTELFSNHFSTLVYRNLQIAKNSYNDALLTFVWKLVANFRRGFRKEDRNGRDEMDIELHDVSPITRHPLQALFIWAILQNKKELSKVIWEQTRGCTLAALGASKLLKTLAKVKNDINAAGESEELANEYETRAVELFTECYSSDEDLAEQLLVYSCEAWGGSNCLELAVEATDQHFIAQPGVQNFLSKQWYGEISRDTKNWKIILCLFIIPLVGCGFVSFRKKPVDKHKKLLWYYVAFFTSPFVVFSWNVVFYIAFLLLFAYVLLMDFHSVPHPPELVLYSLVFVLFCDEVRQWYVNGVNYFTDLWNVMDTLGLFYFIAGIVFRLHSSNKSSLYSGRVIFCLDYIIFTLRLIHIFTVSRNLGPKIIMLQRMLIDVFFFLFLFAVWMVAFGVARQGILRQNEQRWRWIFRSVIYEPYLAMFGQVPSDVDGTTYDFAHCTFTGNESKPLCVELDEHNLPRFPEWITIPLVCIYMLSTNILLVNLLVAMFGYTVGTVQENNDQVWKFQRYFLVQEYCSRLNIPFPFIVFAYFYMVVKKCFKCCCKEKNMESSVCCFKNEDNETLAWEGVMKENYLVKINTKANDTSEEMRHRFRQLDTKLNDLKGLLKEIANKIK
Assay: Ca2+ microfluorimetry in HEK293 cells expressing human TRPM8
Conditions: activation by 100 µM menthol; read-out: Ca^2+ Microfluorimetry Assays hTRPM8 IC50
Procedure: To further characterize this family of compounds, calcium microfluorimetry assays were conducted using the HEK293 cell line, which expresses the human isoform of the TRPM8 channel. Amide derivatives 34 and 35 were selected, and their outcomes were compared with those of the model compound 1 (Table 4). […] This behavior is not particular of these β-lactams, but it is similar to those observed for other TRPM8 antagonists. […]
Kindly state IC50 for each of the entries shown.
Number only, in nM; omit the unit.

Name the recorded IC50 of the item C[C@@H]1C(=O)N(C[C@H](Cc2ccccc2)N(Cc2ccccc2)Cc2ccccc2)[C@]1(Cc1ccccc1)C(=O)NCc1ccccc1 [Compound 35] in your answer. 3330

Name the recorded IC50 of the item CC(C)CNC(=O)[C@]1(Cc2ccccc2)[C@H](C)C(=O)N1C[C@H](Cc1ccccc1)N(Cc1ccccc1)Cc1ccccc1 [Compound 34] in your answer. 2580

###

target: rat TRPM8 channel (rTRPM8) (Rattus norvegicus, UniProt Q8R455); construct: expressed in transfected cells; experiment: Ca2+ microfluorimetry, menthol-induced Ca2+ entry in HEK293 cells overexpressing rTRPM8; assay type: cell-based; conditions: Table 3; rTRPM8, HEK293, activation by 100 µM menthol
Sequence (Q8R455 whole entry): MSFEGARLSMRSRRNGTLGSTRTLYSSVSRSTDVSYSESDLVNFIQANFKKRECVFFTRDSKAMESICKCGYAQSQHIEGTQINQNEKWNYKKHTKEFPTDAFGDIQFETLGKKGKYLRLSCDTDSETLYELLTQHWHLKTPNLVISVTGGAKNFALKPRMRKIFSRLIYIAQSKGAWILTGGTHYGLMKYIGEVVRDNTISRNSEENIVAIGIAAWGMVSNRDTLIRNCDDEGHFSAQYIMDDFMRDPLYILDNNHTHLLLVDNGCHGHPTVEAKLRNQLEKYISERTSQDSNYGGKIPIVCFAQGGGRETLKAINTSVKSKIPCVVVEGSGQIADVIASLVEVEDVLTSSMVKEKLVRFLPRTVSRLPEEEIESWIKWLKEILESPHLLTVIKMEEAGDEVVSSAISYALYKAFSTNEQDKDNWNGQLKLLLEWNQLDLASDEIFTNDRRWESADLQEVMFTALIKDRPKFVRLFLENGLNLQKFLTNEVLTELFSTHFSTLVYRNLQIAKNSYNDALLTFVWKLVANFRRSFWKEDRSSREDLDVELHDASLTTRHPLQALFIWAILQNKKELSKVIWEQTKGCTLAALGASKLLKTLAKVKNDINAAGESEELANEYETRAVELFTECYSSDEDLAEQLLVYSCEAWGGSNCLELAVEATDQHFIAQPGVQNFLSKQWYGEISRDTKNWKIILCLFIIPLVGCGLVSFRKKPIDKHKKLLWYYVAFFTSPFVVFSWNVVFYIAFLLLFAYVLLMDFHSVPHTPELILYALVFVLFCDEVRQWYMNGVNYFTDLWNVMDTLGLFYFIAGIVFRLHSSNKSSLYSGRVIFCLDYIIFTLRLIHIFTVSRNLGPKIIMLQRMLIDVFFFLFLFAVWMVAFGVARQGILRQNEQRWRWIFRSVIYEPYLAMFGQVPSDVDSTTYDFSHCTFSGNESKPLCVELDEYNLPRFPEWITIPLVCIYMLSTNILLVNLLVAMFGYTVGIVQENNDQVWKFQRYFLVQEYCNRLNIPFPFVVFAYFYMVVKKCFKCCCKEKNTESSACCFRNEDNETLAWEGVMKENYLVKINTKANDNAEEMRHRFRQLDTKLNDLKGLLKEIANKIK
quantity-name: pIC50
// pIC50 here means minus log10 of the molar concentration (mol/L)

Name the recorded pIC50 of the item C[C@@H]1C(=O)N(C[C@H](Cc2ccccc2)NCc2ccccc2)[C@]1(Cc1ccccc1)C(=O)OC(C)(C)C [Compound 37] in your answer. 5.51

Name the recorded pIC50 of the item C[C@@H]1C(=O)N(C[C@H](Cc2ccccc2)N(Cc2ccccc2)Cc2ccccc2)[C@]1(Cc1ccccc1)C(=O)NCc1ccccc1 [Compound 35] in your answer. 6.31

Name the recorded pIC50 of the item CC(C)CNC(=O)[C@]1(Cc2ccccc2)[C@H](C)C(=O)N1C[C@H](Cc1ccccc1)N(Cc1ccccc1)Cc1ccccc1 [Compound 34] in your answer. 6.52

Name the recorded pIC50 of the item C[C@@H]1C(=O)N(C[C@H](Cc2ccccc2)NCc2ccc(-c3ccccc3)cc2)[C@]1(Cc1ccccc1)C(=O)OC(C)(C)C [Compound 41] in your answer. 5.03

Name the recorded pIC50 of the item CC(C)CNC(=O)[C@]1(Cc2ccccc2)[C@H](C)C(=O)N1C[C@H](Cc1ccccc1)NCc1cccc(F)c1 [Compound 43] in your answer. 5.39

Name the recorded pIC50 of the item C[C@@H]1C(=O)N(C[C@H](Cc2ccccc2)NCc2cccc(-c3ccccc3)c2)[C@]1(Cc1ccccc1)C(=O)OC(C)(C)C [Compound 40] in your answer. 5.20

Name the recorded pIC50 of the item CC(C)CNC(=O)[C@]1(Cc2ccccc2)[C@H](C)C(=O)N1C[C@H](Cc1ccccc1)NCc1ccc2ccccc2c1 [Compound 45] in your answer. 5.45

Name the recorded pIC50 of the item CC(C)CNC(=O)[C@]1(Cc2ccccc2)[C@H](C)C(=O)N1C[C@H](Cc1ccccc1)NCc1cccc(-c2ccccc2)c1 [Compound 42] in your answer. 5.66

Name the recorded pIC50 of the item CC(C)CNC(=O)[C@]1(Cc2ccccc2)[C@H](C)C(=O)N1C[C@H](Cc1ccccc1)NCc1cccc(Br)c1 [Compound 44] in your answer. 5.49
